Please respond with reported GI50 for every item in the list.
test system: EKVX; test: NCI tumour cell line growth inhibition, 48 h
Calls of active or inactive are those of the source. Rule as the data show it: active = GI50 up to about 1.1 µM and inactive = higher.

What reported GI50 corresponds to CN1CC=C(OP(=O)(NCc2ccccc2)N(CCCl)CCCl)CC1 (centres undefined) on EKVX?
> 100 µM (inactive)

What reported GI50 corresponds to Cc1n[nH]c(=O)n1-c1cccnc1 on EKVX?
> 100 µM (inactive)

What reported GI50 corresponds to N#Cc1c(-c2ccccc2)nc(-c2ccccc2)sc1=S on EKVX?
> 100 µM (inactive)

What reported GI50 corresponds to Cc1ccc(-c2c3nc(c(-c4ccc(C)cc4)c4ccc([nH]4)c(-c4ccc(OCC5COC(C)(C)O5)cc4)c4nc(c(-c5ccc(C)cc5)c5ccc2[nH]5)C=C4)C=C3)cc1 (centres undefined) on EKVX?
13.5 µM (inactive)

What reported GI50 corresponds to CCOC(=O)c1c(N2CCCC2)ncn(Cc2ccccc2)c1=S on EKVX?
> 100 µM (inactive)

What reported GI50 corresponds to CC(C)=C[C@@H]1O[C@H](O)[C@@H]([C@H]2CC[C@@]3(C)[C@@H]4CC[C@H]5C(C)(C)C(=O)CC[C@@]56C[C@@]46CC[C@]23C)[C@@H]1O on EKVX?
18.5 µM (inactive)

What reported GI50 corresponds to C=C(N=[N+]=[N-])c1cn(C2CC(O)C(CO)O2)c(=O)[nH]c1=O (centres undefined) on EKVX?
> 100 µM (inactive)

What reported GI50 corresponds to CSc1s[s+]c(SC)c1-c1ccccc1 on EKVX?
14.8 µM (inactive)

What reported GI50 corresponds to CCC1(OC(=O)CN2CCN(CCO)CC2)C(=O)OCc2c1cc1n(c2=O)Cc2cc3ccccc3nc2-1 (centres undefined) on EKVX?
4.51 µM (inactive)

What reported GI50 corresponds to CC(C)N(CCn1c2c3ccccc3ccc2c2oc(=O)c3ccccc3c21)C(C)C on EKVX?
> 100 µM (inactive)

What reported GI50 corresponds to Cn1c2ccccc2n2c3ccccc3c(=O)c(C#N)c12 on EKVX?
18.7 µM (inactive)

What reported GI50 corresponds to NS(=O)(=O)c1ccc(/C=C/c2ccc(F)cc2)cc1 on EKVX?
47.3 µM (inactive)

What reported GI50 corresponds to O=C1C(c2c(O)[nH]c3ccc(Br)cc23)=Nc2ccccc21 on EKVX?
2.93 µM (inactive)

What reported GI50 corresponds to CN(CC1NCCCC1O)C12CC3CC(CC(C3)C1)C2 (centres undefined) on EKVX?
> 100 µM (inactive)

# credit: ChEMBL document CHEMBL1201862
